# Test system: human Factor 11 mRNA
# experiment_description: Antisense inhibition of human Factor 11 in HepG2 cells, lipofectin, 75 nM (Example 1)
# Assay type: cell-based
# settings: 75 nM antisense oligonucleotide, ~24 h, relative to untreated control cells, gapmers targeted to SEQ ID NO: 1
Strand notation (5' to 3'): a small letter for the sugar, then the base; units joined by * are phosphorothioate-linked, units joined directly phosphodiester-linked; [ ] holds rarer units or linkages, { } end groups; capitals alone tell only the bases. e = 2'-O-(2-methoxyethyl) (MOE); [5mC] = 5-methylcytosine; d = 2'-deoxy (DNA)
# % inhibition >= 60% gives T, anything below gives F

Prompt: Does 412195 (antisense eA*eA*eA*eT*e[5mC]*dA*dT*d[5mC]*d[5mC]*dT*dG*dA*dA*dA*dA*eG*eA*e[5mC]*e[5mC]*eT) [compound 412195] have a reported % inhibition of at least 60%?
Completion: F

Prompt: Does 412202 (antisense eT*eT*eG*eG*eT*dG*dT*dG*dA*dG*d[5mC]*dA*dT*dT*dG*e[5mC]*eT*eT*eG*eA) [compound 412202] have a reported % inhibition of at least 60%?
Completion: T

Prompt: Does 413482 (antisense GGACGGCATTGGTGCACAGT; 5-10-5 MOE gapmer, further chemistry not given here) [compound 413482] have a reported % inhibition of at least 60%?
Completion: T

Prompt: Does 412252 (antisense eT*eT*eA*eT*eG*dG*dT*dA*dA*dT*dT*d[5mC]*dT*dT*dG*eG*eA*e[5mC]*eT*e[5mC]) [compound 412252] have a reported % inhibition of at least 60%?
Completion: F

Prompt: Does 413481 (antisense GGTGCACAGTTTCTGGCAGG; 5-10-5 MOE gapmer, further chemistry not given here) [compound 413481] have a reported % inhibition of at least 60%?
Completion: T

Prompt: Does 413486 (antisense eG*eG*e[5mC]*eT*eT*dG*dA*dT*dT*dT*dT*dG*dG*dT*dG*eG*eT*eA*e[5mC]*eA) [compound 413486] have a reported % inhibition of at least 60%?
Completion: T

Prompt: Does 413476 (antisense eT*eT*eG*eA*eG*dA*dT*dT*d[5mC]*dT*dT*dT*dG*dG*dG*e[5mC]*e[5mC]*eA*eT*eT) [compound 413476] have a reported % inhibition of at least 60%?
Completion: T

###

# experiment_description: Tolerability in CD1 mice: hematology assays (Example 43)
# Format: in vivo
# settings: 50 mg/kg s.c. twice per week for 6 weeks, blood
Strand notation (5' to 3'): a small letter for the sugar, then the base; units joined by * are phosphorothioate-linked, units joined directly phosphodiester-linked; [ ] holds rarer units or linkages, { } end groups; capitals alone tell only the bases. e = 2'-O-(2-methoxyethyl) (MOE); [5mC] = 5-methylcytosine; d = 2'-deoxy (DNA)
reported_metric: RBC
Please provide the amount together with its unit, number first.

Prompt: # lookup: RBC of ISIS 449708: 3-8-3, 4-8-4, 2-10-2, 3-10-3 or 4-10-4 MOE microwalk gapmer (Table 46) (antisense eA*e[5mC]*eA*dG*dT*dT*dT*d[5mC]*dT*dG*dG*e[5mC]*eA*eG)
Completion: 9.2 pL⁻¹

Prompt: # lookup: RBC of ISIS 449709: 3-8-3, 4-8-4, 2-10-2, 3-10-3 or 4-10-4 MOE microwalk gapmer (Table 46) (antisense eG*e[5mC]*eA*e[5mC]*dA*dG*dT*dT*dT*d[5mC]*dT*dG*dG*d[5mC]*eA*eG*eG*e[5mC])
Completion: 9.2 pL⁻¹

Prompt: # lookup: RBC of ISIS 449707: 3-8-3, 4-8-4, 2-10-2, 3-10-3 or 4-10-4 MOE microwalk gapmer (Table 46) (antisense e[5mC]*eA*e[5mC]*eA*dG*dT*dT*dT*d[5mC]*dT*dG*dG*e[5mC]*eA*eG*eG)
Completion: 8.4 pL⁻¹

Prompt: # lookup: RBC of ISIS 449711: 3-8-3, 4-8-4, 2-10-2, 3-10-3 or 4-10-4 MOE microwalk gapmer (Table 46) (antisense eA*e[5mC]*dA*dG*dT*dT*dT*d[5mC]*dT*dG*dG*d[5mC]*eA*eG)
Completion: 9.0 pL⁻¹

Prompt: # lookup: RBC of ISIS 449710: 3-8-3, 4-8-4, 2-10-2, 3-10-3 or 4-10-4 MOE microwalk gapmer (Table 46) (antisense e[5mC]*eA*e[5mC]*dA*dG*dT*dT*dT*d[5mC]*dT*dG*dG*d[5mC]*eA*eG*eG)
Completion: 9.1 pL⁻¹

###

# settings: rat, in vivo, sc, 50 mg/kg
e = 2'-O-(2-methoxyethyl) (MOE); d = 2'-deoxy (DNA)
So basically: is Urine protein/creatinine ratio under 4? Then y. Not under? Then n.

Reference set, count: 4
- substance: "ISIS 445504: 5-8-5 or 6-8-6 MOE microwalk gapmer (Table 44) (antisense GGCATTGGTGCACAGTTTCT; sugars from the 5' end e6 d8 e6, backbone and methylation of C not given here)"
  category: "n"
- substance: "ISIS 445505: 5-8-5 or 6-8-6 MOE microwalk gapmer (Table 44) (antisense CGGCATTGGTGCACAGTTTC; sugars from the 5' end e6 d8 e6, backbone and methylation of C not given here)"
  category: "y"
- substance: "ISIS 445498: 5-8-5 or 6-8-6 MOE microwalk gapmer (Table 44) (antisense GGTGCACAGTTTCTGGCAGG; sugars from the 5' end e6 d8 e6, backbone and methylation of C not given here)"
  category: "y"
- substance: "ISIS 445513: 5-8-5 or 6-8-6 MOE microwalk gapmer (Table 44) (antisense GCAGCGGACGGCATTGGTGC; sugars from the 5' end e6 d8 e6, backbone and methylation of C not given here)"
  category: "n"

Moving on to the next substance.
Prompt: Please state whether Urine protein/creatinine ratio is below 4 for ISIS 445530: 5-8-5 or 6-8-6 MOE microwalk gapmer (Table 44) (antisense GCATTGGTGCACAGTTTC; sugars from the 5' end e5 d8 e5, backbone and methylation of C not given here)
Completion: n

###

# Test system: Factor 11 activity
# experiment_description: Factor 11 protein activity, F11 assay based on clotting time (Example 45)
# Type: in vivo, cynomolgus monkeys
# settings: day 43; escalating dose regimen
reported_metric: percent inhibition of Factor 11 activity, relative to PBS control

- substance: "ISIS 416838: MOE gapmer, nucleobases 1018 to 1042 of SEQ ID NO: 1 (Table 6) (antisense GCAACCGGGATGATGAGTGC; MOE gapmer, wing and gap sizes not given here)"
  recorded_result: "5%"

Now consider a different substance.
Prompt: # lookup: percent inhibition of Factor 11 activity, relative to PBS control of ISIS 417002: MOE gapmer, nucleobases 1275 to 1318 of SEQ ID NO: 1 (Table 8) (antisense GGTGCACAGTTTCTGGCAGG; MOE gapmer, wing and gap sizes not given here)
Completion: 9%

###

# settings: rat, in vivo, sc, 50 mg/kg
e = 2'-O-(2-methoxyethyl) (MOE); d = 2'-deoxy (DNA)
reported_metric: Total urine protein (mg/dL)
# unit: mg/dL | format: bare number

Reference set (3 entries):
- substance: "ISIS 416848: MOE gapmer, nucleobases 1275 to 1318 of SEQ ID NO: 1 (Table 8) (antisense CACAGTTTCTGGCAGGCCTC; MOE gapmer, wing and gap sizes not given here)"
  recorded_result: 231
- substance: "ISIS 416851: MOE gapmer, nucleobases 1275 to 1318 of SEQ ID NO: 1 (Table 8) (antisense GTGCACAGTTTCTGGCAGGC; MOE gapmer, wing and gap sizes not given here)"
  recorded_result: 286
- substance: "ISIS 412223: 5-10-5 MOE gapmer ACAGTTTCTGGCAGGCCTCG (sugars from the 5' end e5 d10 e5, backbone and methylation of C not given here)"
  recorded_result: 224

Prompt: # lookup: Total urine protein of ISIS 416861: MOE gapmer, nucleobases 1275 to 1318 of SEQ ID NO: 1 (Table 8) (antisense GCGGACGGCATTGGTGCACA; MOE gapmer, wing and gap sizes not given here)
Completion: 205

Prompt: # lookup: Total urine protein of ISIS 412225: 5-10-5 MOE gapmer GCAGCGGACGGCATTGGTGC (sugars from the 5' end e5 d10 e5, backbone and methylation of C not given here)
Completion: 209

Prompt: # lookup: Total urine protein of ISIS 416863: MOE gapmer, nucleobases 1275 to 1318 of SEQ ID NO: 1 (Table 8) (antisense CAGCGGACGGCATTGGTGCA; MOE gapmer, wing and gap sizes not given here)
Completion: 269

###

# Test system: blood coagulation
# experiment_description: PT and aPTT assay in cynomolgus monkeys (Example 46)
# Format: in vivo
# settings: Day 38; platelet poor plasma; relative to PBS group
# Protocol: Groups, each consisting of two male and two female monkeys, were injected subcutaneously with 25 mg/kg of ISIS 416850, ISIS 449709, ISIS 445522, ISIS 449710, ISIS 449707, ISIS 449711, ISIS 449708, 416858, and ISIS 445531. […] Body weights were taken 14 days and 7 days before the start of treatment and were then measured weekly throughout the treatment period. […] PT and aPTT were measured using platelet poor plasma (PPP) from […] treated with ISIS oligonucleotides. […]
Strand notation (5' to 3'): a small letter for the sugar, then the base; units joined by * are phosphorothioate-linked, units joined directly phosphodiester-linked; [ ] holds rarer units or linkages, { } end groups; capitals alone tell only the bases. e = 2'-O-(2-methoxyethyl) (MOE); [5mC] = 5-methylcytosine; d = 2'-deoxy (DNA)
reported_metric: PT ratio (INR)
Lab note: jot the number down without any unit.

Reference set (2 entries):
- substance: "ISIS 449711: 3-8-3, 4-8-4, 2-10-2, 3-10-3 or 4-10-4 MOE microwalk gapmer (Table 46) (antisense eA*e[5mC]*dA*dG*dT*dT*dT*d[5mC]*dT*dG*dG*d[5mC]*eA*eG)"
  PT ratio (INR): 1.02
- substance: "ISIS 445531: 5-8-5 or 6-8-6 MOE microwalk gapmer (Table 44) (antisense eG*eG*e[5mC]*eA*eT*dT*dG*dG*dT*dG*d[5mC]*dA*d[5mC]*eA*eG*eT*eT*eT)"
  PT ratio (INR): 1.03

Prompt: # lookup: PT ratio (INR) of ISIS 449708: 3-8-3, 4-8-4, 2-10-2, 3-10-3 or 4-10-4 MOE microwalk gapmer (Table 46) (antisense eA*e[5mC]*eA*dG*dT*dT*dT*d[5mC]*dT*dG*dG*e[5mC]*eA*eG)
Completion: 0.99
